measuredTarget: SAP (Homo sapiens, UniProt P02743)
Sequence (P02743 20-223): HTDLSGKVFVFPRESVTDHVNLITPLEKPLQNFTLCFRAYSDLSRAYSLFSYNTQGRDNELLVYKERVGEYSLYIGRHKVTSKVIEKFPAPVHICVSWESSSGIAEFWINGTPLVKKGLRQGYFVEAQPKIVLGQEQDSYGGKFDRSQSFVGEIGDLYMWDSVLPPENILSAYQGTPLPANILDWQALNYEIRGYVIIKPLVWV
protocolDetails: Inhibition of binding of 125I radiolabelled SAP to native long chromatin immobilized in microtitre plates
Design: 5 μl of radiolabelled SAP in TN; from tissue
experimentalContext: compound 200 μM; read-out: Percent inhibition of binding of radiolabelled SAP to immobilized native long chromatin

>  <compound>
O=C(O)[C@H]1CCCN1C(=O)COc1ccccc1OCC(=O)N1CCC[C@@H]1C(=O)O [Ro-63-8593]

>  <measuredTarget>
SAP (Homo sapiens, UniProt P02743)

>  <outputUnit>
%

>  <inhibition at 200 µM>
89

$$$$
>  <compound>
O=C(O)[C@H]1CCCN1C(=O)COc1cccc2c(OCC(=O)N3CCC[C@@H]3C(=O)O)cccc12 [Ro-64-5445]

>  <measuredTarget>
SAP (Homo sapiens, UniProt P02743)

>  <outputUnit>
%

>  <inhibition at 200 µM>
82

$$$$
>  <compound>
O=C(O)[C@H]1CCCN1C(=O)COc1ccc(OCC(=O)N2CCC[C@@H]2C(=O)O)cc1 [Ro-64-2856]

>  <measuredTarget>
SAP (Homo sapiens, UniProt P02743)

>  <outputUnit>
%

>  <inhibition at 200 µM>
75

$$$$
>  <compound>
NCCOP(=O)(O)O [Phosphoethanolamine, reference compound]

>  <measuredTarget>
SAP (Homo sapiens, UniProt P02743)

>  <outputUnit>
%

>  <inhibition at 200 µM>
59

$$$$
>  <compound>
O=C(O)[C@H]1CCCN1C(=O)Cc1cc(O)c(CC(=O)N2CCC[C@@H]2C(=O)O)cc1O [Ro-64-4383]

>  <measuredTarget>
SAP (Homo sapiens, UniProt P02743)

>  <outputUnit>
%

>  <inhibition at 200 µM>
88

$$$$
>  <compound>
O=C(O)[C@H]1CCCN1C(=O)CCCCC(=O)N1CCC[C@@H]1C(=O)O [Ro-63-8695]

>  <measuredTarget>
SAP (Homo sapiens, UniProt P02743)

>  <outputUnit>
%

>  <inhibition at 200 µM>
87

$$$$
>  <compound>
O=C(O)[C@H]1CCCN1C(=O)Cc1ccc(CC(=O)N2CCC[C@@H]2C(=O)O)c2ccccc12 [Ro-64-5607]

>  <measuredTarget>
SAP (Homo sapiens, UniProt P02743)

>  <outputUnit>
%

>  <inhibition at 200 µM>
96

$$$$

----------
measuredTarget: UniProtKB P02743
protocolDetails: Inhibition of binding of 125I radiolabelled SAP to native long chromatin immobilized in microtitre plates
Design: 5 μl of radiolabelled SAP in TN; from tissue
experimentalContext: compound 20 μM; read-out: Percent inhibition of binding of radiolabelled SAP to immobilized native long chromatin
# label = yes (1) if inhibition at 20 µM >= 40% else no (0)

>  <compound>
O=C(O)[C@H]1CCCN1C(=O)CCCCC(=O)N1CCC[C@@H]1C(=O)O

>  <assignedCategory>
yes (1)

$$$$
>  <compound>
NCCOP(=O)(O)O [Phosphoethanolamine, reference compound]

>  <assignedCategory>
no (0)

$$$$
>  <compound>
O=C(O)[C@H]1CCCN1C(=O)COc1ccc(OCC(=O)N2CCC[C@@H]2C(=O)O)cc1

>  <assignedCategory>
yes (1)

$$$$
>  <compound>
O=C(O)[C@H]1CCCN1C(=O)[C@H]1CC[C@@H](C(=O)N2CCC[C@@H]2C(=O)O)CC1

>  <assignedCategory>
yes (1)

$$$$
>  <compound>
O=C(O)[C@H]1CCCN1C(=O)Cc1ccc(CC(=O)N2CCC[C@@H]2C(=O)O)c2ccccc12

>  <assignedCategory>
yes (1)

$$$$
